These entries and their values trace back to ChEMBL document CHEMBL1152833.

System: Mus musculus
Method Notes: Anticonvulsant activity in ip dosed Swiss albino mouse assessed as minimum drug concentration required for inhibition of pentylenetetrazole-induced seizures in half or more of mouse after 0.5 hrs by scPTZ test
Assay type: functional

| Compound | Activity, mg/kg |
| --- | --- |
| O=C(N/N=C/c1ccccc1[N+](=O)[O-])Nc1nc2c(ccc3ccccc32)s1 | 300 |
| O=C(N/N=C/c1ccc(Cl)cc1)Nc1nc2c(ccc3ccccc32)s1 | 300 |
| O=C(N/N=C/c1ccc([N+](=O)[O-])cc1)Nc1nc2c(ccc3ccccc32)s1 | 100 |
| O=C(N/N=C/c1ccc(F)cc1)Nc1nc2c(ccc3ccccc32)s1 | 100 |
| CN(C)c1ccc(/C=N/NC(=O)Nc2nc3c(ccc4ccccc43)s2)cc1 | 300 |
| O=C(N/N=C/c1ccccc1O)Nc1nc2c(ccc3ccccc32)s1 | 300 |
| O=C(N/N=C1\C(=O)Nc2ccccc21)Nc1nc2c(ccc3ccccc32)s1 | 300 |
| O=C(N/N=C/c1ccccc1)Nc1nc2c(ccc3ccccc32)s1 | 300 |
| CCC1(C)CC(=O)NC1=O (stereo not given) [ETHOSUXIMIDE] | 300 |
| CCC1(c2ccccc2)C(=O)NC(=O)NC1=O [PHENOBARBITAL] | 30 |
